Reported IC50 values are given for each entry in this list.
- Target or test system: recombinant eIF4E (Homo sapiens (Human), UniProt P06730)
- Sequence (P06730 whole entry): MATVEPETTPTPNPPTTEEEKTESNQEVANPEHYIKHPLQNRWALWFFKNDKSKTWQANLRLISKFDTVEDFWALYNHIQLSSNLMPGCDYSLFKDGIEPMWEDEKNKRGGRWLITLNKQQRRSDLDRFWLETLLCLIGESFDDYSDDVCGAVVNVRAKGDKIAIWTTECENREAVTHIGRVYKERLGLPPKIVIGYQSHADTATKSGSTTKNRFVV
- Protocol text: Fluorescence polarization competition assay for eIF4E binding potency
- Measurement conditions: fluorescence polarization competition, 75 nM recombinant eIF4E, 20 nM EDA-m7GDP-ATTO-550; IC50 class; read-out: elF4E FP

Take a look at these entries with their results.
>>> recorded_value("Cc1nc2cc(C(F)(F)F)cc([N+](=O)[O-])c2c(=O)n1CCOc1ccc(Cl)cc1-c1ccnc2c(C(=O)O)csc12 [compound 271]")
"< 50 nM"
>>> recorded_value("Cc1cc(-c2cc(Cl)ccc2OCCn2c(C)nc3cc(Cl)c(N4CCCC4=O)c(C#N)c3c2=O)c2scc(C(=O)O)c2n1 [compound 697]")
"< 50 nM"
>>> recorded_value("Cc1nc2cc(C(F)(F)F)cc(C#N)c2c(=O)n1CCOc1ccc(Cl)cc1-c1ccc(F)c2c(C(=O)O)csc12 [compound 122]")
"< 50 nM"
>>> recorded_value("Cc1nc2cc(C(F)(F)F)cc(C#N)c2c(=O)n1CCOc1ccc(Cl)cc1-c1ccnc2c(C(=O)O)cnn12 [compound 661]")
"< 50 nM"

Would you mind telling me what IC50 value was observed for Cc1cc(-c2cc(Cl)ccc2OCCn2c(C)nc3cc(C(F)(F)F)cc(C#N)c3c2=O)c2scc(C(=O)NS(C)(=O)=O)c2n1 [compound 565] ?
< 50 nM

Another compound to check: COc1ncc2nc(C)n(CCOc3ccc(Cl)cc3-c3cc(C)nc4c(C(=O)O)csc34)c(=O)c2c1C#N [compound 897]
< 50 nM

Another compound to check: Cc1sc2c(-c3cc(Cl)ccc3OCCn3c(C)nc4cc(C(F)(F)F)c(C5CCNCC5)c(C#N)c4c3=O)ccnc2c1C(=O)O [compound 887]
< 50 nM

Another compound to check: Cc1nc2cc(C(F)(F)F)c(N3CCN(c4cccnc4)CC3)c(C#N)c2c(=O)n1CCOc1ccc(Cl)cc1-c1cccc(C(=O)O)c1 [compound 380]
< 50 nM

Another compound to check: Cc1nc2cc(C(F)(F)F)c(N3CCN(CCC(F)(F)F)CC3)c(C#N)c2c(=O)n1CCCc1ccc(Cl)cc1-c1ccnc2c(C(=O)O)csc12 [compound 1156]
< 50 nM

Another compound to check: CCc1ncccc1-c1c(C(F)(F)F)cc2nc(C)n(CCOc3ccc(Cl)cc3-c3cc(C)nc4c(C(=O)O)csc34)c(=O)c2c1C#N [compound 466]
< 50 nM

Another compound to check: CCc1ncc2nc(C)n(CCOc3ccc(Cl)cc3-c3cc(C)nc4c(C(=O)O)csc34)c(=O)c2c1C#N [compound 923]
< 50 nM

###

Reported IC50 values are given for each entry in this list.
- Target or test system: recombinant eIF4E (Homo sapiens (Human), UniProt P06730)
- Protocol text: Fluorescence polarization competition assay for eIF4E binding potency
- Measurement conditions: fluorescence polarization competition, 75 nM recombinant eIF4E, 20 nM EDA-m7GDP-ATTO-550; IC50 class; read-out: elF4E FP

Take a look at these entries with their results.
>>> recorded_value("Cc1nc2cnc(N(C)C3CC4(C3)CN(CC(F)(F)F)C4)c(C#N)c2c(=O)n1CC#Cc1ccc(Cl)cc1-c1ccnc2c(C(=O)O)csc12")
"< 50 nM"
>>> recorded_value("Cc1nc2cc(C(F)F)c(C(F)F)c(C#N)c2c(=O)n1CCOc1ccc(Cl)cc1-c1cccc(C(=O)O)c1")
"50 to 1000 nM"

Now consider a different molecule.
Would you mind telling me what IC50 value was observed for C=C(c1ncc2nc(C)n(CCOc3ccc(Cl)cc3-c3cc(C)nc4c(C(=O)O)csc34)c(=O)c2c1C#N)C(F)(F)F ?
< 50 nM

###

Reported log10(IC50) values are given for each entry in this list.
- Target or test system: recombinant eIF4E (Homo sapiens (Human))
- Protocol text: Fluorescence polarization competition assay for eIF4E binding potency
- Measurement conditions: inhibition of eIF4E/EDA-m7GDP-ATTO-550 binding; calculated IC50 values, Table 4B; read-out: IC50
Hi team, quick reminder: these entries are log10 of IC50 (nM).

Take a look at these entries with their results.
>>> recorded_value("Cc1nc2cnc(C3=CCN(CCF)CC3)c(C#N)c2c(=O)n1CC#Cc1ccc(Cl)cc1-c1ccnc2c(C(=O)O)csc12")
1.30
>>> recorded_value("Cc1cc(-c2c(C(F)F)cc3nc(C)n(CCOc4ccc(Cl)cc4-c4cc(C)nc5c(C(=O)O)csc45)c(=O)c3c2C#N)ccn1")
1.11

Would you mind telling me what log10(IC50) value was observed for Cc1nc2cnc(N(C)C3CCN(CC(C)(F)F)CC3)c(C#N)c2c(=O)n1CC#Cc1ccc(Cl)cc1-c1ccnc2c(C(=O)NS(=O)(=O)c3ccn(C)n3)csc12 ?
0.64

Another molecule to check: Cc1nc2cnc(/C=C/CN(C)CCF)c(C#N)c2c(=O)n1CC#Cc1ccc(Cl)cc1-c1ccnc2c(C(=O)O)csc12
0.82

Another molecule to check: Cc1nc2cnc(N(C)C3CCN(C4COC4)CC3)c(C#N)c2c(=O)n1CC#Cc1ccc(Cl)cc1-c1ccnc2c(C(=O)O)csc12
1.12

Another molecule to check: Cc1nc2cnc(N3CCN(C(C)(C)CC#N)CC3)c(C#N)c2c(=O)n1CCOc1ccc(Cl)cc1-c1ccnc2c(C(=O)O)csc12
1.61

Another molecule to check: Cc1nc2cnc(NC3CCCC3)cc2c(=O)n1CCOc1ccc(Cl)cc1-c1cccc(C(=O)O)c1
2.56

Another molecule to check: CCN(c1ncc2nc(C)n(CC#Cc3ccc(Cl)cc3-c3ccnc4c(C(=O)NS(=O)(=O)c5ccccn5)csc34)c(=O)c2c1C#N)C1CCN(C2COC2)CC1
0.73

Another molecule to check: Cc1nc2cc(C(F)(F)F)c(N3CCN(C)C(CO)C3)c(C#N)c2c(=O)n1CCOc1ccc(Cl)cc1-c1ccnc2c(C(=O)O)csc12 (stereo not shown)
1.53

Another molecule to check: Cc1nc2cnc(N3CC4(C3)CN(C3CCC3)C4)c(C#N)c2c(=O)n1CCOc1ccc(Cl)cc1-c1ccnc2c(C(=O)NS(C)(=O)=O)csc12
1.09

###

- Target or test system: recombinant eIF4E (Homo sapiens (Human))
- Protocol text: Fluorescence polarization competition assay for eIF4E binding potency
- Measurement conditions: fluorescence polarization competition, 75 nM recombinant eIF4E, 20 nM EDA-m7GDP-ATTO-550; IC50 class; read-out: elF4E FP
Reported IC50 values are given for each entry in this list.

>>> recorded_value("Cc1ccc(C#N)c2c(=O)n(CCOc3ccc(Cl)cc3-c3ccnc4c(C(=O)O)csc34)c(C)nc12")
"50 to 1000 nM"
>>> recorded_value("CCc1cc(-c2cc(Cl)ccc2OCCn2c(C)nc3c(N(C)C)nc(C4CC4)c(C#N)c3c2=O)c2scc(C(=O)O)c2n1")
"< 50 nM"
>>> recorded_value("CSC1CN(c2c(Cl)cc3nc(C)n(CCOc4ccc(Cl)cc4-c4cc(C)nc5c(C(=O)O)csc45)c(=O)c3c2C#N)C1")
"50 to 1000 nM"
>>> recorded_value("Cc1nc2cc(C(F)(F)F)cc(C#N)c2c(=O)n1CCOc1ccc(Cl)cc1-c1ccnc(-c2nnn[nH]2)c1")
"50 to 1000 nM"
>>> recorded_value("Cc1cc(-c2cc(Cl)ccc2OCCn2c(C)nc3ccc(CN4CCN(C)CC4)c(C#N)c3c2=O)c2scc(C(=O)O)c2n1")
"< 50 nM"

Would you mind telling me what IC50 value was observed for CCc1nc(C)c2nc(C)n(CCOc3ccc(Cl)cc3-c3ccnc4c(C(=O)O)csc34)c(=O)c2c1C#N ?
< 50 nM

Another molecule to check: CCc1cc(-c2cc(Cl)ccc2OCCn2c(C)nc3cc(C(F)(F)F)c(N4CCN(C)CC4)cc3c2=O)c2scc(C(=O)O)c2n1
< 50 nM

###

- Target or test system: recombinant eIF4E (Homo sapiens (Human), UniProt P06730)
- Protocol text: Fluorescence polarization competition assay for eIF4E binding potency
- Measurement conditions: inhibition of eIF4E/EDA-m7GDP-ATTO-550 binding by 50%; Table 4B calculated values; read-out: IC50
- Description: Compounds were screened for eIF4E binding potency using a fluorescence polarization competition assay. All binding reactions were performed in fluorescence polarization buffer (FPB) containing 20 mM Tris pH 7.5, 100 mM NaCl, 1 mM DTT, and 0.02% Tween-20. Final binding reactions contained 75 nM recombinant eIF4E (Beryllium, custom order), 20 nM EDA-m^7GDP-ATTO-550 (Jena Bioscience, NU-827-550) and varying concentrations of the inhibitory compound of interest. […]
Binarize IC50 at 30 nM; below is satisfied, at or above is not satisfied.

Known results for compounds:
>>> group("Cc1cc(-c2cc(Cl)ccc2C#CCn2c(C)nc3cc(C(F)(F)F)cc(C#N)c3c2=O)c2scc(C(=O)O)c2n1 [compound 560]")
"satisfied"
>>> group("Cc1nc2cc(C(F)(F)F)c(-c3cccnc3)c(C#N)c2c(=O)n1CCOc1ccc(Cl)cc1-c1cccc(C(=O)O)c1 [compound 388]")
"satisfied"
>>> group("Cc1nc2cc(F)c(C(F)F)c(C#N)c2c(=O)n1CCOc1ccc(Cl)cc1-c1ccnc2c(C(=O)O)csc12 [compound 230]")
"satisfied"
>>> group("Cc1cnc(-c2nc3c(=O)n(CCOc4ccc(Cl)cc4-c4cc(C)nc5c(C(=O)O)csc45)c(C)nc3cc2C(F)(F)F)cn1 [compound 1018]")
"satisfied"
>>> group("Cc1nc2cc(C(F)(F)F)cc(C#N)c2c(=O)n1CCOc1ccc(Cl)cc1-c1cccc2c1S(=O)(=O)C=C2C(=O)O [compound 327]")
"not satisfied"

# TODO verify IC50 < 30 nM strictly for this compound: Cc1cc(-c2cc(Cl)ccc2OCCn2c(C)nc3cc(C(F)(F)F)c(-c4ccccc4C(N)=O)nc3c2=O)c2scc(C(=O)O)c2n1 [345b]
satisfied

Another compound to check: Cc1cc(-c2cc(Cl)ccc2OCCn2c(C)nc3cn(C)c(=O)c(C#N)c3c2=O)c2scc(C(=O)O)c2n1 [compound 1005]
not satisfied

Another compound to check: COC1CN(c2ncc3nc(C)n(CCOc4ccc(Cl)cc4-c4cc(C)nc5c(C(=O)O)csc45)c(=O)c3c2C#N)C1 [compound 1010]
satisfied

Another compound to check: CC(=O)N1CCN(c2c(C(F)(F)F)cc3nc(C)n(CCOc4ccc(Cl)cc4-c4cccc(C(=O)O)c4)c(=O)c3c2C#N)CC1 [compound 378]
not satisfied

Another compound to check: Cc1cc(-c2cc(Cl)ccc2OCCn2c(C)nc3cc(C(F)(F)F)c(N4CCC(C)(C)CC4)nc3c2=O)c2scc(C(=O)O)c2n1 [compound 801]
satisfied

Another compound to check: Cc1cc(-c2cc(Cl)ccc2OCCn2c(C)nc3cnc(N4CCN(C)CC4)c(C#N)c3c2=O)c2scc(C(=O)O)c2n1 [compound 1145]
not satisfied

Another compound to check: Cc1cc(-c2cc(Cl)ccc2OCCn2c(C)nc3c(-c4ccccc4)nc(N4CCC4)c(C#N)c3c2=O)c2scc(C(=O)O)c2n1 [compound 1008]
satisfied

Another compound to check: Cc1nc2cncc(C#N)c2c(=O)n1C/C=C/c1ccc(Cl)cc1-c1cccc(C(=O)O)c1 [compound 44]
not satisfied
